- Tested on: human SMAD7 mRNA
- experimental.details: Antisense inhibition of human SMAD7 mRNA expression in Hep3B cells by 3-10-3 cEt gapmers, 10,000 nM, electroporation (Example 2)
- Assay type: cell-based
- setup.conditions: Hep3B cells, electroporation, 10,000 nM antisense oligonucleotide, approximately 24 hours, RTS5062, relative to untreated control cells
Strand notation (5' to 3'): a small letter for the sugar, then the base; units joined by * are phosphorothioate-linked, units joined directly phosphodiester-linked; [ ] holds rarer units or linkages, { } end groups; capitals alone tell only the bases. k = constrained ethyl (cEt); [5mC] = 5-methylcytosine; d = 2'-deoxy (DNA)
// thresholds for % inhibition of SMAD7 mRNA expression classes: bin 0: < 10%; bin 1: ≥ 10% and < 30%; bin 2: ≥ 30%

{"substance": "799594 (kT*kG*kA*dA*d[5mC]*dG*dG*dA*dA*dA*dG*dA*dA*kG*kA*kA; antisense) [compound 799594]", "study.system": "human SMAD7 mRNA", "label": "bin 2"}
{"substance": "799836 (antisense kA*kG*kA*dT*dA*dT*d[5mC]*dG*dG*d[5mC]*d[5mC]*d[5mC]*d[5mC]*k[5mC]*kT*kG) [compound 799836]", "study.system": "human SMAD7 mRNA", "label": "bin 2"}
{"substance": "799774 (kG*k[5mC]*k[5mC]*d[5mC]*dT*dG*dT*dT*d[5mC]*dT*dG*d[5mC]*dG*k[5mC]*kT*kA; antisense) [compound 799774]", "study.system": "human SMAD7 mRNA", "label": "bin 0"}
{"substance": "799582 (kA*k[5mC]*kA*dA*dA*d[5mC]*d[5mC]*dT*dT*d[5mC]*d[5mC]*dG*dA*kA*kA*kG; antisense) [compound 799582]", "study.system": "human SMAD7 mRNA", "label": "bin 1"}
{"substance": "799593 (kG*kA*kA*dG*dG*dA*dG*d[5mC]*dT*d[5mC]*dA*dA*dA*k[5mC]*kT*kT; antisense) [compound 799593]", "study.system": "human SMAD7 mRNA", "label": "bin 0"}
{"substance": "799287 (antisense kT*k[5mC]*kT*dG*d[5mC]*dT*d[5mC]*dA*dG*dG*d[5mC]*dT*dT*k[5mC]*kA*k[5mC]) [compound 799287]", "study.system": "human SMAD7 mRNA", "label": "bin 1"}
{"substance": "799673 (antisense k[5mC]*kT*kG*dA*dT*dT*dA*dA*d[5mC]*dT*dT*dT*d[5mC]*k[5mC]*kT*kT) [compound 799673]", "study.system": "human SMAD7 mRNA", "label": "bin 2"}
{"substance": "799286 (antisense kG*k[5mC]*kT*d[5mC]*dA*dG*dG*d[5mC]*dT*dT*d[5mC]*dA*d[5mC]*kT*kG*k[5mC]) [compound 799286]", "study.system": "human SMAD7 mRNA", "label": "bin 0"}
{"substance": "799832 (antisense k[5mC]*kA*k[5mC]*d[5mC]*d[5mC]*dA*dT*dA*d[5mC]*dT*dT*dG*dG*kA*kA*kG) [compound 799832]", "study.system": "human SMAD7 mRNA", "label": "bin 1"}
{"substance": "799319 (antisense kT*kG*k[5mC]*dT*dG*dT*dG*dG*dA*dT*dT*dT*dG*kA*kA*kA) [compound 799319]", "study.system": "human SMAD7 mRNA", "label": "bin 0"}
{"substance": "799581 (k[5mC]*kA*kA*dA*d[5mC]*d[5mC]*dT*dT*d[5mC]*d[5mC]*dG*dA*dA*kA*kG*kG; antisense) [compound 799581]", "study.system": "human SMAD7 mRNA", "label": "bin 0"}
{"substance": "799791 (kG*kG*kG*dA*dG*dA*d[5mC]*d[5mC]*dT*dA*d[5mC]*d[5mC]*dT*k[5mC]*kT*kG; antisense) [compound 799791]", "study.system": "human SMAD7 mRNA", "label": "bin 2"}
{"substance": "799779 (kT*kA*kA*dA*d[5mC]*dA*dA*dA*d[5mC]*d[5mC]*dA*d[5mC]*dA*kG*kG*kG; antisense) [compound 799779]", "study.system": "human SMAD7 mRNA", "label": "bin 1"}
{"substance": "799601 (kG*kA*kA*dT*dA*d[5mC]*dA*d[5mC]*dT*dG*d[5mC]*dA*d[5mC]*k[5mC]*kA*kA; antisense) [compound 799601]", "study.system": "human SMAD7 mRNA", "label": "bin 2"}
